# credit: patent US7691854B2

measured_target: human neutrophil elastase (HNE) (Homo sapiens)
Sequence (P08246 30-267): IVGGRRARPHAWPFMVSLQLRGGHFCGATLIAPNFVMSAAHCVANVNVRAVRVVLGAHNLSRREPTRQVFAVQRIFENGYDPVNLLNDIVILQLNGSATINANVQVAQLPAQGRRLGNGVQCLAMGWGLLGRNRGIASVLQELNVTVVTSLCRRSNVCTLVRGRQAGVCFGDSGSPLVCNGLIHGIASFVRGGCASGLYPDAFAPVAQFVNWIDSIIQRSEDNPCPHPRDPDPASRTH
experiment_notes: In vitro inhibition of HNE using a fluorogenic peptide substrate (MeOSuc-Ala-Ala-Pro-Val-AMC)
measurement_parameters: 384 MTP format
pIC50: −log10 of the molar value.
test_readout: pIC50

>  <compound>
CC(=O)C1=C(N)N(c2cccc(C(F)(F)F)c2)C(C)=C(C#N)C1c1ccc(C#N)cc1 (centres unmarked)

>  <pIC50>
7.05

$$$$
>  <compound>
CCOC(=O)C1=C(N)N(c2cccc(C(F)(F)F)c2)C(COC)=C(C(=O)OC)C1c1ccc(C#N)cc1 (centres unmarked)

>  <pIC50>
7.40

$$$$
>  <compound>
CCOC(=O)C1=C(C)N(c2cccc(C(F)(F)F)c2)C(N)=C(C(=O)OCC)C1c1ccc(C#N)cc1 (centres unmarked)

>  <pIC50>
7.52

$$$$

[I] CCOC(=O)C1=C(C)N(c2cccc(C(F)(F)F)c2)C(N)=C(C(=O)OCC)C1c1ccc(Br)nc1 (centres unmarked)
[II] CCOC(=O)C1=C(C)N(c2cccc(C(F)(F)F)c2)C(N(C)C)=C(C(=O)OCC)C1c1ccc(C#N)cc1 (centres unmarked)
IN: Exercise: compare I and II ; which one has the greater pIC50? Could you answer with the label of the item you picked?
OUT: II

[1] CCNC(=O)NC1=C(C(=O)OCC)C(c2ccc(C#N)cc2)C(C(=O)OCC)=C(C)N1c1cccc(C(F)(F)F)c1 (centres unmarked)
[2] CCOC(=O)C1=C(C)N(c2cccc(C(F)(F)F)c2)C(N)=C(C2=NC(C)(C)CO2)C1c1ccc(C#N)cc1 (centres unmarked)
[3] CC1=C(C#N)C(c2ccc(C#N)cc2)C(C(N)=O)=C(N)N1c1cccc(C(F)(F)F)c1 (centres unmarked)
IN: Arrange items by their pIC50 values in increasing order. Provide the ranking by listing each label in its place in the requested order.
OUT: 1, 3, 2
(1: 6.89, 3: 7.57, 2: 8.00)
